# experiment-summary: In vivo pharmacokinetic study after oral (intragastric) administration in rats
# condition: plasma; rat, oral solution, 1 mg/kg; read-out: Cmax (μg/mL), Mean

{"columns": ["cpd-smiles", "units", "Cmax"],
 "data": [
  ["CNC(=O)Oc1ccc2c(c1)[C@]1(C)CCN(C)[C@@H]1N2C", "µg/mL", 0.57]
]}

---

# experiment-summary: In vivo pharmacokinetic study after oral (intragastric) administration in rats
# condition: plasma; rat, oral solution, 1 mg/kg
observable: Tmax (min)

{"columns": ["cpd-smiles", "numeric-value"],
 "data": [
  ["CNC(=O)Oc1ccc2c(c1)[C@]1(C)CCN(C)[C@@H]1N2C", 40.8]
]}
